System: SETVI (Foxtail, Green)
Assay comment: Preemergence herbicidal evaluation
Assay type: in vivo, Setaria viridis
Setup conditions: preemergence, 0.0313 kg/ha, rated 4-5 weeks after treatment, 0-9 scale
Readout name: SETVI rating
Please respond with just the number, no unit label.

Q: State the recorded SETVI rating for this entry: CCOC(=O)CN1C(=O)C(CC(=O)NS(=O)(=O)CC)SC1=Nc1cc(-n2c(=O)cc(C(F)(F)F)n(C)c2=O)c(F)cc1Cl (centres unmarked)
Ans: 0.0

Q: Another compound: CCOC(=O)CN1C(=O)C(CC(=O)NS(=O)(=O)c2ccccc2)SC1=Nc1cc(-n2c(=O)cc(C(F)(F)F)n(C)c2=O)c(F)cc1Cl (centres unmarked)
Ans: 0.0

Q: Next up: C=CCOC(=O)CN1C(=O)CSC1=Nc1cc(-n2c(=O)cc(C(F)(F)F)n(C)c2=O)c(F)cc1Cl
Ans: 0.5

Q: Same again, this time with COC(=O)C1(N2C(=O)CSC2=Nc2cc(-n3c(=O)cc(C(F)(F)F)n(C)c3=O)c(F)cc2Cl)CCCCC1
Ans: 0.0

Q: Next up: CN1C(=O)C(CC(N)=O)SC1=Nc1cc(-n2c(=O)cc(C(F)(F)F)n(C)c2=O)c(F)cc1Cl (centres unmarked)
Ans: 0.0

###

Listed here: items and their measured Herbicidal rating CYPIR.
Tested on: CYPIR (Rice Flatsedge)
Assay comment: Preemergence weed control under flooded paddy conditions
Assay type: in vivo, Cyperus iria
Setup conditions: 0.0313 kg/ha, rated 3-4 weeks after treatment
// response body must contain only the number

Examples with answers:
CCOC(=O)CN1C(=O)C(C)SC1=Nc1cc(-n2c(=O)cc(C(F)(F)F)n(C)c2=O)c(F)cc1Cl (centres unmarked) | 0.0
C=CCN1C(=O)C(CC(=O)Nc2ccccc2)SC1=Nc1cc(-n2c(=O)cc(C(F)(F)F)n(C)c2=O)c(F)cc1Cl (centres unmarked) | 5.0
Cn1c(C(F)(F)F)cc(=O)n(-c2cc(N=C3SCC(=O)N3[C@@H](Cc3ccccc3)C(=O)O)c(Cl)cc2F)c1=O | 2.0

Q: Form field: Herbicidal rating CYPIR recorded for C=CCN1C(=O)CSC1=Nc1cc(-n2c(=O)cc(C(F)(F)F)n(C)c2=O)c(F)cc1Cl with CYPIR (Rice Flatsedge) (enter value)
Ans: 3.0

Q: // repeat for CCOC(=O)COc1ccccc1CC1S/C(=N/c2cc(-n3c(=O)cc(C(F)(F)F)n(C)c3=O)c(F)cc2Cl)N(CC(=O)OCC)C1=O (centres unmarked) and report
Ans: 0.0

Q: How about Cn1c(C(F)(F)F)cc(=O)n(-c2cc(N=C3SCC(=O)N3CC(=O)NS(C)(=O)=O)c(Cl)cc2F)c1=O ?
Ans: 3.0

Q: Try the molecule CCOC(=O)CN1CCSC1=Nc1cc(-n2nc(C)n(C(F)F)c2=O)c(F)cc1Cl
Ans: 0.0

Q: Please do the same for CCOC(=O)CN1C(=O)C(CC(=O)OCc2ccccc2)OC1=Nc1cc(-n2c(=O)cc(C(F)(F)F)n(C)c2=O)c(F)cc1Cl (centres unmarked) as well.
Ans: 0.0

###

Tested on: MOOVA (Monochoria)
Assay comment: Postemergence weed control under flooded paddy conditions
Format: in vivo, Monochoria vaginalis
Setup conditions: Rate 0.2500 kg/ha, postemergence weeds, rated 3 to 4 weeks after treatment
Readout name: Herbicidal rating MOOVA
Format: numeric value only, no unit, no commentary.

The following compounds have reported results that may help.
C=CCN1C(=O)C(CC(N)=O)SC1=Nc1cc(-n2c(=O)cc(C(F)(F)F)n(C)c2=O)c(F)cc1Cl (stereo not shown) | 9.0
CCOC(=O)CN1C(=O)C(Cc2ccccc2OC(C)C(=O)O)S/C1=N/c1cc(-n2c(=O)cc(C(F)(F)F)n(C)c2=O)c(F)cc1Cl (stereo not shown) | 9.0
C=CCN1C(=O)C(CC(=O)OC(C)C(=O)OCC)SC1=Nc1cc(-n2c(=O)ccn(C)c2=O)c(F)cc1Cl (stereo not shown) | 9.0

Q: Give its Herbicidal rating MOOVA value. Item: CCOC(=O)CN1C(=O)C(CC(=O)NS(=O)(=O)CC)SC1=Nc1cc(-n2c(=O)cc(C(F)(F)F)n(C)c2=O)c(F)cc1Cl (stereo not shown)
Ans: 9.0

###

Tested on: ECHORC (Watergrass (Calif.))
Assay comment: Postemergence weed control under flooded paddy conditions
Format: in vivo, Echinochloa oryzoides
Setup conditions: rate 0.1250 kg/ha, postemergence weeds, 3-4 weeks after treatment
Readout name: Herbicidal rating ECHORC
Lab note: record just the number, no unit beside it.

CCOC(=O)CN1C(=O)C(C)SC1=Nc1cc(-n2c(=O)cc(C(F)(F)F)n(C)c2=O)c(F)cc1Cl (stereo not drawn) | 8.5

Q: // query Herbicidal rating ECHORC value for entry CCOP(=O)(CN1C(=O)CSC1=Nc1cc(-n2c(=O)cc(C(F)(F)F)n(C)c2=O)c(F)cc1Cl)OCC
Ans: 3.0

Q: Please give the result for CCOC(=O)CN1CCSC1=Nc1cc(-n2nc(C)n(C(F)F)c2=O)c(F)cc1Cl too.
Ans: 7.0

Q: Another compound to check: C=CCN1C(=O)C(CC(=O)Nc2ccccc2)SC1=Nc1cc(-n2c(=O)cc(C(F)(F)F)n(C)c2=O)c(F)cc1Cl (stereo not drawn)
Ans: 7.0

Q: Please do the same for CCOC(=O)COc1ccccc1CC1S/C(=N/c2cc(-n3c(=O)cc(C(F)(F)F)n(C)c3=O)c(F)cc2Cl)N(CC(=O)OCC)C1=O (stereo not drawn) as well.
Ans: 5.0

Q: Also, CCOC(=O)CN1C(=O)C(Cc2ccccc2OC(C)C(=O)OC)SC1=Nc1cc(-n2c(=O)cc(C(F)(F)F)n(C)c2=O)c(F)cc1Cl (stereo not drawn) please.
Ans: 7.0

###

Test system: TRZAWR (Wheat, Winter, cv Riband)
Assay comment: Preemergence herbicidal evaluation
Format: in vivo, Triticum aestivum
Setup conditions: rate 0.0625 kg/ha; rated 4-5 weeks after treatment
Readout name: Preemergence herbicidal rating TRZAWR
Please respond with just the number, no unit label.

Observe how each entry below is paired with its result.
C=CCN1C(=O)CSC1=Nc1cc(-n2c(=O)cc(C(F)(F)F)n(C)c2=O)c(F)cc1Cl | 3.0
CCOC(=O)[C@H](C)N1C(=O)CSC1=Nc1cc(-n2c(=O)cc(C(F)(F)F)n(C)c2=O)c(F)cc1Cl | 3.0
CCOC(=O)CN1C(=O)C(CC(=O)O)SC1=Nc1cc(-n2nc(C)n(C(F)F)c2=O)c(F)cc1Cl (stereo not shown) | 0.0

Query compound follows.
Q: Can you share its Preemergence herbicidal rating TRZAWR? I mean this compound: CCOC(=O)C(c1ccc(Cl)cc1)N1C(=O)CSC1=Nc1cc(-n2c(=O)cc(C(F)(F)F)n(C)c2=O)c(F)cc1Cl (racemic)
Ans: 1.0

###

Tested on: ABUTH (Velvetleaf)
Assay comment: Preemergence herbicidal evaluation
Format: in vivo, Abutilon theophrasti
Setup conditions: rate 0.1250 kg/ha; rated 4-5 weeks after treatment
Readout name: Preemergence herbicidal rating ABUTH
Number only, no unit.

Q: # lookup: Preemergence herbicidal rating ABUTH of C=CCN1C(=O)C(CC(=O)NS(=O)(=O)C(C)C)SC1=Nc1cc(-n2c(=O)cc(C(F)(F)F)n(C)c2=O)c(F)cc1Cl (centres unmarked) [Compound 118]
Ans: 9.0

Q: Continue with COC(=O)[C@H](Cc1ccc([N+](=O)[O-])cc1)N1C(=O)CSC1=Nc1cc(-n2c(=O)cc(C(F)(F)F)n(C)c2=O)c(F)cc1Cl [Compound 78]
Ans: 2.0

Q: And what about the compound O=C(O)CC1SC(=Nc2cc(N3C(=O)C4=C(CCCC4)C3=O)c(F)cc2Cl)N(CC(=O)O)C1=O (centres unmarked) [Compound 48] ?
Ans: 9.0

Q: Try the compound Cn1c(C(F)(F)F)cc(=O)n(-c2cc(N=C3SCC(=O)N3CC(=O)OCC3CC3)c(Cl)cc2F)c1=O [Compound 124]
Ans: 2.0

Q: Same read-out for Cn1c(C(F)(F)F)cc(=O)n(-c2cc(N=C3SCC(=O)N3CCC(=O)O)c(Cl)cc2F)c1=O [Compound 30] ?
Ans: 9.0

Q: Same question, Cn1c(C(F)(F)F)cc(=O)n(-c2cc(N=C3SCC(=O)N3CCC(=O)O)c(Cl)cc2F)c1=O [Compound 31] this time
Ans: 9.0

Q: Cn1c(C(F)(F)F)cc(=O)n(-c2cc(/N=C3/SCC(=O)N3CC(=O)O)c(Cl)cc2F)c1=O [Compound 52] , same question.
Ans: 9.0

Q: And CCOC(=O)CN1C(=O)C(Cl)SC1=Nc1cc(-n2c(=O)cc(C(F)(F)F)n(C)c2=O)c(F)cc1Cl (centres unmarked) [Compound 126] ?
Ans: 5.0

Q: Same thing, different compound: COC(=O)[C@H](Cc1ccccc1)N1C(=O)CS/C1=N/c1cc(-n2c(=O)cc(C(F)(F)F)n(C)c2=O)c(F)cc1Cl [Compound 72]
Ans: 9.0

Q: What do you get for CCOC(=O)[C@H](C)N1C(=O)CSC1=Nc1cc(-n2c(=O)cc(C(F)(F)F)n(C)c2=O)c(F)cc1Cl [Compound 76] ?
Ans: 9.0

Q: Quick one: C=CCN1C(=O)C(CC(=O)OC(C)C)SC1=Nc1cc(-n2c(=O)cc(C(F)(F)F)n(C)c2=O)c(F)cc1Cl (centres unmarked) [Compound 66]
Ans: 9.0
